# measurementTarget: PIM1 (Homo sapiens, UniProt P11309)
# Sequence (P11309 whole entry): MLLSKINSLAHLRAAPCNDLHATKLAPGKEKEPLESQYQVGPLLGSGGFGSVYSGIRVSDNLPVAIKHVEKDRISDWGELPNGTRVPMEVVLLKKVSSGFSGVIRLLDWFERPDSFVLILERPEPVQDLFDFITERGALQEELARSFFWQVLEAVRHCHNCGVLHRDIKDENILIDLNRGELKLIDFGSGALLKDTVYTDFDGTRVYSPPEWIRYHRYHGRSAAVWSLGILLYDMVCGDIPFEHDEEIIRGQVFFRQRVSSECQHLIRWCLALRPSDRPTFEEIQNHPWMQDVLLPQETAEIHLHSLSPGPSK
Each entry below carries its recorded IC50.
# number only, unit nM dropped from output

Examples with their reported IC50 follow.
compound	endpointUnit	IC50
CC(C)NC(=O)c1ccc(F)c(-c2ccc(N)c(-c3cc4c(N5CCC[C@H](N)C5)c(F)cnc4cn3)n2)c1 [Example 2]	nM	18
Nc1ccc(-c2nccs2)nc1-c1cc2c(N3CCC[C@H](N)C3)c(F)cnc2cn1 [Example 1]	nM	2
N[C@H]1CCCN(c2ccnc3ccc(-c4nccc(-c5c(F)cccc5F)n4)cc23)C1 [Example 29]	nM	6
Nc1ccc(-c2ccccc2F)nc1-c1cc2c(N3CCC[C@H](N)C3)ccnc2cn1 [Example 11]	nM	2
N[C@H]1CCCN(c2ccnc3ccc(-c4nccc(-c5ccccc5F)n4)cc23)C1 [Example 30]	nM	8
Cc1cc(-c2ccnc3cnc(-c4nc(-c5cc(C(=O)NC(C)C)ccc5F)ccc4N)cc23)cc(N)n1 [Example 4]	nM	24

Field IC50 (PIM1 (Homo sapiens, UniProt P11309)), entry Nc1ccc(-c2ccc(F)cc2F)nc1-c1cc2c(N3CCC[C@H](N)C3)ccnc2cn1 [Example 17] : 4

Note to self: IC50 of CC(C)NC(=O)c1ccc(F)c(-c2ccc(N)c(-c3cc4c(N5CCC[C@H](N)C5)ccnc4cn3)n2)c1 [Example 10] with PIM1 (Homo sapiens, UniProt P11309) was 3

Value sought: IC50, system PIM1 (Homo sapiens, UniProt P11309), item Nc1ccc(-c2cc(C(=O)Nc3ccccc3)ccc2F)nc1-c1cc2c(N3CCC[C@H](N)C3)ccnc2cn1 [Example 12] . Result: 9

// IC50 (PIM1 (Homo sapiens, UniProt P11309)) for Nc1ccc(-c2cccs2)nc1-c1cc2c(N3CCC[C@H](N)C3)ccnc2cn1 [Example 13] = 3
